# Assay context: in water, 308.15 K
Measured attribute: solubility (mole fraction)
In your answer, state the number alone without any accompanying words.

Lab note: measured solubility (mole fraction) of Nc1ccc(S(=O)(=O)Nc2ncccn2)cc1 was 8.69e-06

* * *

# Assay context: in water, 288.15 K
Measured attribute: solubility (mole fraction)
In your answer, state the number alone without any accompanying words.

Lab note: measured solubility (mole fraction) of Nc1ccc(S(=O)(=O)Nc2ncccn2)cc1 was 2.86e-06

* * *

# Assay context: in ethylene glycol, 283.15 K
Measured attribute: solubility (mole fraction)
In your answer, state the number alone without any accompanying words.

Lab note: measured solubility (mole fraction) of Nc1ccc(S(=O)(=O)Nc2ncccn2)cc1 was 0.000379

* * *

# Assay context: in ethylene glycol, 298.15 K
Measured attribute: solubility (mole fraction)
In your answer, state the number alone without any accompanying words.

Lab note: measured solubility (mole fraction) of Nc1ccc(S(=O)(=O)Nc2ncccn2)cc1 was 0.000532

* * *

# Assay context: in water, 298.15 K
Measured attribute: solubility (mole fraction)
In your answer, state the number alone without any accompanying words.

Lab note: measured solubility (mole fraction) of Nc1ccc(S(=O)(=O)Nc2ncccn2)cc1 was 4.81e-06

* * *

# Assay context: in ethylene glycol, 303.15 K
Measured attribute: solubility (mole fraction)

Lab note: measured solubility (mole fraction) of Nc1ccc(S(=O)(=O)Nc2ncccn2)cc1 was 0.000575

* * *

# Assay context: in water, 293.15 K
Measured attribute: solubility (mole fraction)
In your answer, state the number alone without any accompanying words.

Lab note: measured solubility (mole fraction) of Nc1ccc(S(=O)(=O)Nc2ncccn2)cc1 was 3.8e-06
